Molecular target: GLUT1 (Homo sapiens, UniProt P11166)
Sequence (P11166 whole entry, species assumed): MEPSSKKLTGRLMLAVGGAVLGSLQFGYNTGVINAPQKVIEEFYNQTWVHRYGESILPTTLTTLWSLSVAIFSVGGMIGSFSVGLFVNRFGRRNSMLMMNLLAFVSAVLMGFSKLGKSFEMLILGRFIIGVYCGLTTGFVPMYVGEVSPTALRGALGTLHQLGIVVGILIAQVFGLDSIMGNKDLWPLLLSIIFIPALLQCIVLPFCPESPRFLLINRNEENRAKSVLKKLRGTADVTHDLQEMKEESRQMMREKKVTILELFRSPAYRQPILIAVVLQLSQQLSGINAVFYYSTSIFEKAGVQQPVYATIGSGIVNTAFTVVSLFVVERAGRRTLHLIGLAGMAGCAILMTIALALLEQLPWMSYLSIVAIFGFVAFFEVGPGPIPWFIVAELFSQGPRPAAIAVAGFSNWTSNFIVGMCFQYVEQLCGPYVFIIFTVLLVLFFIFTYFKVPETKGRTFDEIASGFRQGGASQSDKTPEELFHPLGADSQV
Test: Indirect measurement of GLUT1 activity by quantification of intracellular ATP levels (glucose induced ATP increase)
Assay type: cell-based
Parameters: endogenous in cells; host or cells: DLD1 or CHO-K1
Details: read-out: IC50 regarding glucose induced ATP increase (GLUT1 inhibition)
OBSERVED PROPERTY: IC50 (nM)

Some solved cases for reference:
MOLECULE SMILES	IC50 (nM)
CCc1nc(Cn2nc(C(F)(F)F)c(NC(=O)c3cc(C(N)=O)nc4cc(F)c(Cl)cc34)c2C)no1	5.5
Cc1nn(Cc2cc(C#N)no2)c(C)c1NC(=O)c1cc(C(N)=O)nc2cc(F)ccc12	14.2
Cc1c(NC(=O)c2cc(C(F)(F)F)nc3ccc(Br)cc23)c(C(F)(F)F)nn1Cc1ccc(C(=O)NCCN(C)C)cn1	221
Cc1nn(Cc2ccc(C(=O)Nc3cccnc3)cc2)c(C)c1NC(=O)c1cc(C(F)(F)F)nc2ccc(Br)cc12	9.4
Cc1ccc2nc(C)cc(C(=O)Nc3c(C(F)(F)F)nn(Cc4ccc(C#N)cc4)c3C)c2c1	161

(P) COc1cc(C(=O)Nc2c(C)nn(Cc3ccc(C#N)cn3)c2C)c2ccccc2n1
(Q) COCc1noc(Cn2nc(C)c(NC(=O)c3cc(C(N)=O)nc4ccccc34)c2C)n1
Lower value of IC50 belongs to which: P or Q ? Could you answer with the label of the item you picked?
P
(P: 28.8 nM, Q: 107 nM)
